Each entry below carries its recorded IC50.
- TARGET OR SYSTEM: Histone deacetylase (HDAC1 and HDAC2) (Homo sapiens, UniProt Q13547+Q92769)
- TEST DETAILS: Inhibition of HDAC1/HDAC2 in human HeLa cell nuclear extract using Boc-Lys(Ac)-AMC as substrate and measured by fluorometric method
- Type: cell-based

Sample answers from the record:
O=C(COc1ccc(-c2nnc(-c3ccccc3)s2)cc1)NO : > 1000 nM
O=C(CCCOc1ccc(-c2nnc(-c3ccccc3)s2)cc1)NO : > 1000 nM
COc1cc(-c2nnc(-c3ccc(OCCCC(=O)NO)cc3)s2)cc(OC)c1OC : > 1000 nM
COc1cc(-c2nnc(-c3cccc(OCCCCCCCC(=O)NO)c3)s2)cc(OC)c1OC : 395 nM
O=C(COc1cccc(-c2nnc(-c3ccccc3)s2)c1)NO : > 1000 nM
COc1cc(-c2nnc(-c3cccc(OCC(=O)NO)c3)s2)cc(OC)c1OC : > 1000 nM
O=C(CCCOc1cccc(-c2nnc(-c3ccccc3Cl)s2)c1)NO : > 1000 nM
O=C(CCCCCCCOc1cccc(-c2nnc(-c3ccccc3Cl)s2)c1)NO : 461 nM

Task: Let me know recorded IC50 for COc1cc(-c2nnc(-c3cccc(OCCCCC(=O)NO)c3)s2)cc(OC)c1OC , thanks.
Output: > 1000 nM

Task: Could you please provide reported IC50 for O=C(CCCCCOc1ccc(-c2nnc(-c3ccccc3)s2)cc1)NO ? Thanks!
Output: > 1000 nM

Task: Name the recorded IC50 of the molecule listed here: O=C(COc1cccc(-c2nnc(-c3ccccc3Cl)s2)c1)NO
Output: > 1000 nM

Task: Determine its reported IC50: O=C(CCCCOc1ccc(-c2nnc(-c3ccccc3Cl)s2)cc1)NO
Output: > 1000 nM

Task: Output measured IC50 for this item: O=C(COc1ccc(-c2nnc(-c3ccccc3Cl)s2)cc1)NO
Output: > 1000 nM

Task: Tell me measured IC50 for COc1cc(-c2nnc(-c3ccc(OCCCCC(=O)NO)cc3)s2)cc(OC)c1OC please.
Output: > 1000 nM

Task: Return value of IC50 for input O=C(CCCCCOc1ccc(-c2nnc(-c3ccccc3Cl)s2)cc1)NO , no commentary.
Output: > 1000 nM

====

- TARGET OR SYSTEM: Histone deacetylase 1 (Homo sapiens, UniProt Q13547)
- Sequence (Q13547 whole entry): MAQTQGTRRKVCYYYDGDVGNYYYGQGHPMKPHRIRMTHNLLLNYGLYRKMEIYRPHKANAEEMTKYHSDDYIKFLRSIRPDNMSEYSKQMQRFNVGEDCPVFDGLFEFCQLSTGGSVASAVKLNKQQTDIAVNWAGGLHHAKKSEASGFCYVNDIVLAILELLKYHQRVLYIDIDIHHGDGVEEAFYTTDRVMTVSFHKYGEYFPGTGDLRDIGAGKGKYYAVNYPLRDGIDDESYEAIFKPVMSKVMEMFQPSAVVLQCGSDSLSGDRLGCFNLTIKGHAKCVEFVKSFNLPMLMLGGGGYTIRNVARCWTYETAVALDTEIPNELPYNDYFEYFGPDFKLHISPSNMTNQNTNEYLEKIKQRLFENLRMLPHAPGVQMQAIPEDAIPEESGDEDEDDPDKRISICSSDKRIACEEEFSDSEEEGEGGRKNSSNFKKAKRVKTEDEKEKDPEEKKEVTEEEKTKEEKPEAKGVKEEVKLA
- TEST DETAILS: Inhibition of HDAC1 in human HeLa cell nuclear extract using Boc-Lys(Ac)-AMC or Boc-Lys(triflouroacetyl)-AMC as substrate incubated for 30 mins and measured by fluorescence assay
OBSERVABLE: log10 IC50 (log10 of the value in nM)
On a log10 scale: recorded IC50, unit nM.

Task: For O=C(CCCCCOc1cccc(-c2nnc(-c3ccccc3)s2)c1)NO , write its log10 IC50.
Output: 1.18

Task: Give log10 IC50 for the following compound: O=C(CCCCCCOc1cccc(-c2nnc(-c3ccccc3)s2)c1)NO
Output: 1.28

Task: Please give the documented log10 IC50 of O=C(CCCCCCOc1cccc(-c2nnc(-c3ccccc3Cl)s2)c1)NO
Output: 2.23

Task: Determine from records and report log10 IC50 for O=C(CCCCCCOc1ccc(-c2nnc(-c3ccccc3)s2)cc1)NO
Output: 1.91

Task: Determine its reported log10 IC50: O=C(CCCCOc1cccc(-c2nnc(-c3ccccc3)s2)c1)NO
Output: 2.25

====

- TARGET OR SYSTEM: Histone deacetylase (HDAC1 and HDAC2) (Homo sapiens, UniProt Q13547+Q92769)
- TEST DETAILS: Inhibition of HDAC1/HDAC2 in human HeLa cell nuclear extract using Boc-Lys(Ac)-AMC as substrate and measured by fluorometric method
- Assay type: cell-based
Measured IC50 of individual entries

Here's what some known entries look like.
O=C(CCCOc1cccc(-c2nnc(-c3ccccc3)s2)c1)NO : > 1000 nM
COc1cc(-c2nnc(-c3ccc(OCCCCCC(=O)NO)cc3)s2)cc(OC)c1OC : > 1000 nM

Task: Give reported IC50 value for COc1cc(-c2nnc(-c3cccc(OCCCC(=O)NO)c3)s2)cc(OC)c1OC
Output: > 1000 nM

====

- TARGET OR SYSTEM: Histone deacetylase (HDAC1 and HDAC2) (Homo sapiens, UniProt Q13547+Q92769)
- TEST DETAILS: Inhibition of HDAC1/HDAC2 in human HeLa cell nuclear extract using Boc-Lys(Ac)-AMC as substrate and measured by fluorometric method
- Format: cell-based
In plain terms, low IC50, meaning strictly below 500 nM, gives condition met, and everything else gives condition not met.

O=C(CCCCCCOc1cccc(-c2nnc(-c3ccccc3)s2)c1)NO : condition met
O=C(CCCCCCOc1ccc(-c2nnc(-c3ccccc3)s2)cc1)NO : condition met
O=C(CCCCOc1cccc(-c2nnc(-c3ccccc3)s2)c1)NO : condition met
O=C(CCCCCCCOc1cccc(-c2nnc(-c3ccccc3)s2)c1)NO : condition not met
COc1cc(-c2nnc(-c3ccc(OCCCCCCCC(=O)NO)cc3)s2)cc(OC)c1OC : condition not met

Pending molecule:
Task: hey, is IC50 for COc1cc(-c2nnc(-c3ccc(OCCCCCCC(=O)NO)cc3)s2)cc(OC)c1OC lower than 500 nM or not?
Output: condition not met
